For each record, write down the corresponding Levels After 2 Month of Storage.
- ASSAY NAME: By-products of 500 ppm REB A after two months of storage in phosphoric acid at RT
- Type: physicochemical
- CONDITION LABEL: approximated concentration of by-product of 500 ppm REB A
Give bare numbers, in ppm.

C[C@@]12CCC[C@@](C)(C(=O)O[C@@H]3O[C@H](CO)[C@@H](O)[C@H](O)[C@H]3O)[C@H]1CC[C@]13C=C(CO)[C@](O[C@@H]4O[C@H](CO)[C@@H](O)[C@H](O[C@@H]5O[C@H](CO)[C@@H](O)[C@H](O)[C@H]5O)[C@H]4O[C@@H]4O[C@H](CO)[C@@H](O)[C@H](O)[C@H]4O)(CC[C@H]12)C3	1
CC1(C(=O)O)CCCC2(C)C3CCC4(OC5OC(CO)C(O)C(OC6OC(CO)C(O)C(O)C6O)C5OC5OC(CO)C(O)C(O)C5O)CC3(CCC12)CC4(C)O (stereo not shown)	33

Go through the items and report each one's Levels After 2 Month of Storage.
1. CC1(C(=O)OC2OC(CO)C(O)C(O)C2O)CCCC2(C)C3CCC4(OC5OC(CO)C(O)C(OC6OC(CO)C(O)C(O)C6O)C5OC5OC(CO)C(O)C(O)C5O)CC3(CCC12)CC4(C)O (stereo not shown)
2. CC1=CC23CCC4C(C)(C(=O)O)CCCC4(C)C2CCC1(OC1OC(CO)C(O)C(OC2OC(CO)C(O)C(O)C2O)C1OC1OC(CO)C(O)C(O)C1O)C3 (stereo not shown)

Result:
[10, 1]

These entries and their values trace back to patent US20110160311A1.
